Entry source: patent US20150167004

Exercise: state measured IC50 for each of the binders provided.
Target: DNMT3A (Homo sapiens, UniProt Q9Y6K1 Q9Y6K1:1-912)
Sequence (Q9Y6K1 whole entry, one chain of several): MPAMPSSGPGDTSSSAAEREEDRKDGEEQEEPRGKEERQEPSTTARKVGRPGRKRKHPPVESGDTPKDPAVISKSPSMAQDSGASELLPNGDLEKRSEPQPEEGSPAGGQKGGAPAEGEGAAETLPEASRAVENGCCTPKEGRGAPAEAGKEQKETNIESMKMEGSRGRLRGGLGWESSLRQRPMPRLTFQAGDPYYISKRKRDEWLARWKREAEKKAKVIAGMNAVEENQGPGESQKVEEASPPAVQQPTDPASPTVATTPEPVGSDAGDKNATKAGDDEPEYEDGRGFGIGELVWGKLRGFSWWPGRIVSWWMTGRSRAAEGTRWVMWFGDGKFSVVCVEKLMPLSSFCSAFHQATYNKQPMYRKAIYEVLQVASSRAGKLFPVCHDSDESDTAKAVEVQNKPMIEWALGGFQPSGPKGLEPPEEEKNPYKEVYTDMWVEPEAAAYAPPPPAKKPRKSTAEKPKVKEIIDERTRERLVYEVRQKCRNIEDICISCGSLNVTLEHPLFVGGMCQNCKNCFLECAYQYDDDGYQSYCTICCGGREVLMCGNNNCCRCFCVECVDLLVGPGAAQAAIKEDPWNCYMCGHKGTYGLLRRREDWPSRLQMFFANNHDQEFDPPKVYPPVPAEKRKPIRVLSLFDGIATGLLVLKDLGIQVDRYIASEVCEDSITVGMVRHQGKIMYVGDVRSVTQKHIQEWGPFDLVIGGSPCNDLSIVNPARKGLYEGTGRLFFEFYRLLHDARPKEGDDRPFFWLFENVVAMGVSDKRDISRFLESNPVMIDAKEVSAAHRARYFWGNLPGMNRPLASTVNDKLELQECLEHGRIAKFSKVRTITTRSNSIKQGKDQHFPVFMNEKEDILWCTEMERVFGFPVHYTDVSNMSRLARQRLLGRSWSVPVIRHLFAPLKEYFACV
Assay: inhibition; tritiated methyl incorporation from SAM
Numbers only, in µM.

INSERT INTO measurements (binder, property_name, unit_info, measurement) VALUES
  ('CCTATGCGATCGAGTTTTCTCGATCGCATAGG (structured_DNA, 5mC at 7 and 11; zebularine (pyrimidin-2-one ribonucleoside) at 21 and 25; phosphodiester [7,11,21,25]) [MTC-427 (MTC-423m)]', 'IC50', 'µM', 1.52);

Now consider a different binder.
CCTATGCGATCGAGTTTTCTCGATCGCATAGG (structured_DNA, 5mC at 7 and 11; 5-aza-5,6-dihydro-dC at 21 and 25; phosphodiester [7,11,21,25]) [MTC-425 (MTC-422m)] yielded IC50 of 6.69
